- ASSAY_SUMMARY: cells
- RUN_CONDITIONS: Homo sapiens, OVCA433, 48 h
- Description: Antiproliferative activity against human OVCA433 cells measured after 48 hrs by MTT assay
MEASURED_QUANTITY: pIC50
Reminder that pIC50 means the negative base-10 logarithm of the concentration expressed in mol/L.

Challenge: I would be grateful if you could share the reported pIC50 for CCCCCCCCCCCC(=O)N1CCN(C(=O)C2Sc3ccccc3N(CC)C2=O)CC1 (stereo not given) .
Response given: 4.71

Challenge: Field entry: CCCCCCCCCCC(=O)NC1CCN(C(=O)C2Sc3ccccc3N(CC)C2=O)CC1 (stereo not given)
Response given: 4.46

Challenge: Field entry: CCCCCCCCCCCCCC(=O)NC1CCN(C(=O)C2Sc3ccccc3N(CC)C2=O)CC1 (stereo not given)
Response given: 4.58

Challenge: Field entry: CCCCCCCCCCCCCC(=O)N1CCN(C(=O)C2Sc3ccccc3N(CC)C2=O)CC1 (stereo not given)
Response given: 4.77

Challenge: Field entry: CCCCCCCCCC(=O)N1CCN(C(=O)C2Sc3ccccc3N(CC)C2=O)CC1 (stereo not given)
Response given: 4.05

Challenge: Field entry: CCCCCCCCCCC(=O)N1CCC(NC(=O)C2Sc3ccccc3N(CC)C2=O)CC1 (stereo not given)
Response given: 4.55

Challenge: Field entry: CCCCCCCCCCCCCCC(=O)N1CCC(NC(=O)C2Sc3ccccc3N(CC)C2=O)CC1 (stereo not given)
Response given: 4.76

Challenge: Field entry: CCCCCCCCCCCCCCCC(=O)N1CCC(NC(=O)C2Sc3ccccc3N(CC)C2=O)CC1 (stereo not given)
Response given: 4.52

###

- MEASUREMENT_TARGET: Glycogen synthase kinase-3 beta (Homo sapiens)
- Sequence (P49841 whole entry): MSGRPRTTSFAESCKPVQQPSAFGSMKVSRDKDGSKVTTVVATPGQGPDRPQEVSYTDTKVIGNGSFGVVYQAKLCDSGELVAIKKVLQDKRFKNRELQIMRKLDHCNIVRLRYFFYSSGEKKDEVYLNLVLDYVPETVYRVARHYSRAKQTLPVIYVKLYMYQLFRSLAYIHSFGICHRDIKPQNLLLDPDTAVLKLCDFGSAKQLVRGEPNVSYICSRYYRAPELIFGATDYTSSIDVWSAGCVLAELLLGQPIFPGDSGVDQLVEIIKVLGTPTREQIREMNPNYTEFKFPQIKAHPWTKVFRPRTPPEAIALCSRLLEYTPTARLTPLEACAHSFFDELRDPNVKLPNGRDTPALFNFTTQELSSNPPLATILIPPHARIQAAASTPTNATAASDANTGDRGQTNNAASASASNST
MEASURED_QUANTITY: IC50 (nM)
API: value field is a number in nM; no unit string.

Challenge: I would be grateful if you could share the reported IC50 for O=C1Cc2cc(Br)ccc2/C1=c1/[nH]c2ccccc2/c1=C\O .
Response given: 5

###

- ASSAY_SUMMARY: cells
- RUN_CONDITIONS: Homo sapiens, OVCA433, 48 h
MEASURED_QUANTITY: IC50 (µM)
API: value field is a number in µM; no unit string.

Challenge: I would be grateful if you could share the reported IC50 for CCCCCCCCCCCCCCCC(=O)NC1CCN(C(=O)C2Sc3ccccc3N(CC)C2=O)CC1 (stereo not given) .
Response given: 69.8

Challenge: Field entry: Cn1sc(=O)n(Cc2ccccc2)c1=O
Response given: 15.3

Challenge: Field entry: CCCCCCCCCCCCCC(=O)N1CCC(NC(=O)C2Sc3ccccc3N(CC)C2=O)CC1 (stereo not given)
Response given: 14.9

Challenge: Field entry: CCCCCCCCCC(=O)N1CCC(NC(=O)C2Sc3ccccc3N(CC)C2=O)CC1 (stereo not given)
Response given: 47.7

###

- ASSAY_SUMMARY: cells
- RUN_CONDITIONS: Homo sapiens, OVCA433, 48 h
Can you tell me pIC50 for the items I'm about to list?
Reminder that pIC50 means the negative base-10 logarithm of the concentration expressed in mol/L.

Challenge: I would be grateful if you could share the reported pIC50 for CCCCCCCCC(=O)N1CCN(C(=O)C2Sc3ccccc3N(CC)C2=O)CC1 (stereo not given) .
Response given: 4.09

Challenge: Field entry: CCCCCCCCCCCC(=O)NC1CCN(C(=O)C2Sc3ccccc3N(CC)C2=O)CC1 (stereo not given)
Response given: 4.55

Challenge: Field entry: CCCCCCCCCCCC(=O)N1CCC(NC(=O)C2Sc3ccccc3N(CC)C2=O)CC1 (stereo not given)
Response given: 4.57

Challenge: Field entry: CCCCCCCCCC(=O)NC1CCN(C(=O)C2Sc3ccccc3N(CC)C2=O)CC1 (stereo not given)
Response given: 4.11

Challenge: Field entry: CCCCCCCCCCCCCCC(=O)NC1CCN(C(=O)C2Sc3ccccc3N(CC)C2=O)CC1 (stereo not given)
Response given: 5.08

Challenge: Field entry: CCCCCCCCCCCCCCCC(=O)N1CCN(C(=O)C2Sc3ccccc3N(CC)C2=O)CC1 (stereo not given)
Response given: 4.81

Challenge: Field entry: CCCCCCCCC(=O)N1CCC(NC(=O)C2Sc3ccccc3N(CC)C2=O)CC1 (stereo not given)
Response given: 4.04

Challenge: Field entry: CCCCCCCCCCC(=O)N1CCN(C(=O)C2Sc3ccccc3N(CC)C2=O)CC1 (stereo not given)
Response given: 4.64
